system: RS4;11 (BCL-2 dependent acute lymphoblastic leukemia cell line); experiment: RS4;11 Cell Proliferation Assay; format: cell-based; settings: Homo sapiens, RS4-11, RS4;11 cells, read-out: Cellular proliferation assay (IC50, nM) RS4
So basically, the class depends on measured IC50, and the ranges are bin 1: < 0.2 nM; bin 2: ≥ 0.2 nM and < 0.4 nM; bin 3: ≥ 0.4 nM

compound	qualitative.label
COc1cc(CN2CCN(C3CC4(C3)CN(c3ccc(C(=O)NS(=O)(=O)c5ccc(NCC6CCOCC6)c([N+](=O)[O-])c5)c(Oc5cnc6[nH]cc(F)c6c5)c3)C4)[C@H](c3ccccc3C(C)C)C2)ccc1C1CC1 [Example 320]	bin 1
COc1ccc(CN2CCN(C3CC4(CCN(c5ccc(C(=O)NS(=O)(=O)c6ccc(NC[C@H]7CC[C@](C)(O)CC7)c([N+](=O)[O-])c6)c(Oc6cnc7[nH]ccc7c6)c5)CC4)C3)C(c3ccccc3C(C)C)C2)nc1OC (stereo partly drawn) [Example 194]	bin 2
COc1cc(CN2CCN(C3CC4(C3)CN(c3ccc(C(=O)NS(=O)(=O)c5ccc(NC[C@H]6CC[C@](C)(O)CC6)c([N+](=O)[O-])c5)c(Oc5cnc6[nH]ccc6c5)c3)C4)[C@H](c3ccccc3C(C)C)C2)cc2c1OC(C)(C)C=C2 [Example 329]	bin 2
COc1cc(CN2CCN(C3CC4(CCN(c5ccc(C(=O)NS(=O)(=O)c6ccc(NC[C@H]7CC[C@](C)(O)CC7)c([N+](=O)[O-])c6)c(Oc6cnc7[nH]cc(F)c7c6)c5)CC4)C3)[C@H](c3ccccc3C(C)C)C2)ccc1C(C)C [Example 264]	bin 2
COc1ccc(CN2CCN(C3CC4(CCN(c5ccc(C(=O)NS(=O)(=O)c6ccc(NC[C@H]7CC[C@](C)(O)CC7)c([N+](=O)[O-])c6)c(Oc6cnc7[nH]ccc7c6)c5)CC4)C3)C(c3ccccc3C(C)C)C2)cc1Br (stereo partly drawn) [Example 143]	bin 3
CC(C)c1ccccc1C1CN(CCc2ccccc2)CCN1C1CC2(CCN(c3ccc(C(=O)NS(=O)(=O)c4ccc(NC[C@H]5CC[C@](C)(O)CC5)c([N+](=O)[O-])c4)c(Oc4cnc5[nH]ccc5c4)c3)CC2)C1 (stereo partly drawn) [Example 26]	bin 3
COc1cc(CN2CCN(C3CC4(C3)CN(c3ccc(C(=O)NS(=O)(=O)c5ccc(NC[C@H]6CC[C@](C)(O)CC6)c([N+](=O)[O-])c5)c(Oc5cnc6[nH]cc(F)c6c5)c3)C4)[C@H](c3ccccc3C(C)C)C2)ccc1OC1COC1 [Example 351]	bin 1
CC(C)c1ccccc1C1CN(Cc2cccc3c2OCO3)CCN1C1CC2(CCN(c3ccc(C(=O)NS(=O)(=O)c4ccc(NC[C@H]5CC[C@](C)(O)CC5)c([N+](=O)[O-])c4)c(Oc4cnc5[nH]ccc5c4)c3)CC2)C1 (stereo partly drawn) [Example 115]	bin 3
[2H]C([2H])([2H])Oc1cc(CN2CCN(C3CC4(C3)CN(c3ccc(C(=O)NS(=O)(=O)c5ccc(NC[C@H]6CC[C@](C)(O)CC6)c([N+](=O)[O-])c5)c(Oc5cnc6[nH]cc(F)c6c5)c3)C4)[C@H](c3ccccc3C(C)C)C2)cc2ccoc12 [Example 322]	bin 1
COc1c(Cl)cccc1CN1CCN(C2CC3(CCN(c4ccc(C(=O)NS(=O)(=O)c5ccc(NC[C@H]6CC[C@](C)(O)CC6)c([N+](=O)[O-])c5)c(Oc5cnc6[nH]ccc6c5)c4)CC3)C2)C(c2ccccc2C(C)C)C1 (stereo partly drawn) [Example 119]	bin 3
COc1cc(CN2CCN(C3CC4(C3)CN(c3ccc(C(=O)NS(=O)(=O)c5ccc(NC[C@H]6CC[C@](C)(O)CC6)c([N+](=O)[O-])c5)c(Oc5cnc6[nH]cc(F)c6c5)c3)C4)[C@H](c3ccccc3C(C)C)C2)ccc1F [Example 184]	bin 1
